- Test system: E. coli ATCC 25922
- Type: cell-based, Escherichia coli
- ASSAY SETUP: ATCC 25922, 18 h
Ends that are not written are not given here.
QUANTITY: MBC (µM)
Numeric only. Scale: µM

Example results:
| PRIMARY SEQUENCE | OBSERVED MEASUREMENT |
| --- | --- |
| WRIRRRWPRLPRPRWRPWFPPR [Peptide B7-L6] | 4 |
| WRIRRRWPRLPRPRWRPRFPPP [Peptide B7-T6] | 0.5 |
| WRIRRRWPRLPRPRWRPLPFPR [Peptide B7-B6] | 2 |

Q: Which value of MBC has been reported for WRIRRRWPRLPRPRWRPRFPPPFPIPR [Peptide B7-T11] in the records?
A: 2

Q: Thanks! And WRIRRRWPRLPRPRWRPWFPPRFPIPR [Peptide B7-L11] ?
A: 2

###

Listed below: MBC values for each entry.
- System: K. pneumoniae ATCC 700603
- Type: cell-based, Klebsiella pneumoniae
- ASSAY SETUP: ATCC 700603, 18 h
Ends that are not written are not given here.

In the examples that follow, each entry is paired with its recorded MBC.
| PRIMARY SEQUENCE | MBC |
| --- | --- |
| WRIRRRWPRLPRPRWRPLPFPRPGPRP [Peptide B7-B11] | 8 µM |
| WRIRRRWPRLPRPRWRPWFPPR [Peptide B7-L6] | 4 µM |

Q: Name the recorded MBC for WRIRRRWPRLPRPRWRPWFPPRFPIPR [Peptide B7-L11] .
A: 4 µM

Q: Next sequence: WRIRRRWPRLPRPRWRPRFPPPFPIPR [Peptide B7-T11]
A: 4 µM

###

- Test system: E. coli BW 25113 ΔsbmA
- Assay type: cell-based, Escherichia coli
- ASSAY SETUP: full MHB, 18 h at 37 °C, mode of at least three independent experiments
Ends that are not written are not given here.
List of MIC values.
Give just the number in µM; leave the unit off.

Answered examples (4):
| PRIMARY SEQUENCE | QUANTITY | OBSERVED MEASUREMENT |
| --- | --- | --- |
| WRIRRRWPRLPRPRWRPLPFPR [Peptide B7-B6] | MIC | 2 |
| WRIRRRWPRLPRPRWR [Peptide B7-005] | MIC | 2 |
| WRIRRRWPRLPRPRWRPLPFPRPGPRP [Peptide B7-B11] | MIC | 1 |
| WRIRRRWPRLPRPRWRPRFPPP [Peptide B7-T6] | MIC | 1 |

Q: Query (sequence): WRIRRRWPRLPRPRWRPRFPPPFPIPR [Peptide B7-T11] ; field requested: MIC
A: 1

Q: How about WRIRRRWPRLPRPRWRPWFPPR [Peptide B7-L6] ?
A: 2

Q: Then what about the sequence WRIRRRWPRLPRPRWRPWFPPRFPIPR [Peptide B7-L11] ?
A: 2

###

- Tested on: P. aeruginosa ATCC 27853
- Assay type: cell-based, Pseudomonas aeruginosa
- ASSAY SETUP: ATCC 27853, 18 h
Ends that are not written are not given here.
QUANTITY: MBC (µM)
Please respond with the number in µM and leave the unit unwritten.

| PRIMARY SEQUENCE | MBC (µM) |
| --- | --- |
| WRIRRRWPRLPRPRWRPRFPPPFPIPR [Peptide B7-T11] | 16 |
| WRIRRRWPRLPRPRWRPLPFPRPGPRP [Peptide B7-B11] | 16 |
| WRIRRRWPRLPRPRWRPRFPPP [Peptide B7-T6] | 32 |

Q: Value lookup for MBC; key = WRIRRRWPRLPRPRWRPLPFPR [Peptide B7-B6]
A: 16

Data origin, for the record: paper PMC12190468
